# SUBJECT OF TEST: CyclinE1/CDK2 (Homo sapiens, UniProt P24864)
# Construct: purchased Eurofins, discovery 14-475
# TEST NAME: Fluorescence Polarization (FP) competitive binding assay, Cyclin E1/Cdk2
# SETUP CONDITIONS: 10 nM Cyclin E1/Cdk2, 2 nM FAM probe; average of 2-3 independent experiments; read-out: Cyclin E FP IC50
*1 amine or outer side, *2 acyl side, *3 side chain or, on linkers, in order; H or OH if unused. Where a SMILES comes first, the peptide text is derived from it. Bridges are numbered along the chain shown (N, C = ends). [ ]: non-standard residue; d: D form. The star is where a group is joined. X21 = CN([C@@H](Cc1cc(Cl)ccc1-c1ccc(N2CCN3CCOC[C@H]3C2)cc1)C(=O)[*:2])[*:1]; X1 = C[C@H]1CN(c2ccc(-c3ccc(Cl)cc3C[C@@H](C(=O)[*:2])N(C)[*:1])cc2)CCN1C; NMehhhLys(Me) = CN([C@@H](CCCCCCCN(C)[*:3])C(=O)[*:2])[*:1]; cBuCO(3,3-F2-1-CF3) = O=C(C1(C(F)(F)F)CC(F)(F)C1)*; Pro(trans-4-F) = O=C(O)[C@@H]1C[C@@H](F)CN1; Gly(cPr) = N[C@H](C(=O)O)C1CC1
I'd be grateful if you could share measured pIC50 for these entries.
pIC50 (log units): -log10 of the concentration in mol/L.

Task: Look up pIC50 for this molecule: CC(C)C[C@@H]1NC(=O)[C@@H](N(C)C(=O)[C@@H](NC(=O)[C@@H]2C[C@@H](F)CN2C(=O)C2(C(F)(F)F)CC(F)(F)C2)C2CC2)CCCCCCCN(C)C(=O)[C@H](Cc2cc(Cl)ccc2-c2ccc(N3CCN(C)[C@@H](C)C3)cc2)N(C)C1=O [Example 409] ({cBuCO(3,3-F2-1-CF3)}-[Pro(trans-4-F)][Gly(cPr)][NMehhhLys(Me)]L[X1]; lactam 3-C)
Result: 6.17

Task: Please do the same for CC(C)C[C@@H]1NC(=O)[C@@H](N(C)C(=O)[C@@H](NC(=O)[C@@H]2C[C@@H](F)CN2C(=O)C2(C(F)(F)F)CC(F)(F)C2)C2CC2)CCCCCCCN(C)C(=O)[C@H](Cc2cc(Cl)ccc2-c2ccc(N3CCN4CCOC[C@H]4C3)cc2)N(C)C1=O [Example 364] ({cBuCO(3,3-F2-1-CF3)}-[Pro(trans-4-F)][Gly(cPr)][NMehhhLys(Me)]L[X21]; lactam 3-C) as well.
Result: 6.37

Task: Repeat for the following molecule: CC(C)C[C@@H]1NC(=O)[C@@H](N(C)C(=O)[C@@H](NC(=O)[C@@H]2C[C@@H](F)CN2C(=O)C2(C(F)(F)F)CC(F)(F)C2)C2CC2)CCC=CCCCNC(=O)[C@H](Cc2cc(Cl)ccc2-c2cnn(S(C)(=O)=O)c2)N(C)C1=O
Result: 5.71

---

# SUBJECT OF TEST: CyclinE1/CDK2 (Homo sapiens, UniProt P24864)
# Construct: purchased Eurofins, discovery 14-475
# TEST NAME: Fluorescence Polarization (FP) competitive binding assay, Cyclin E1/Cdk2;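 also: readings taken after two-hour equilibration at room temperature in HEPES buffer with NaCl, DTT, NP-40 and BSA, IC50 fitted from eight-concentration serial dilution series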
# SETUP CONDITIONS: 10 nM Cyclin E1/Cdk2, 2 nM FAM probe; average of 2-3 independent experiments; read-out: Cyclin E FP IC50
*1 amine or outer side, *2 acyl side, *3 side chain or, on linkers, in order; H or OH if unused. Where a SMILES comes first, the peptide text is derived from it. Bridges are numbered along the chain shown (N, C = ends). [ ]: non-standard residue; d: D form. The star is where a group is joined. X195 = CC(=O)Nc1ccc(-c2ccc(Cl)cc2C[C@@H](C(=O)[*:2])N(C)[*:1])cn1; X178 = CN([C@@H](Cc1cc(F)ccc1-c1cnn(C2CCOC2)c1)C(=O)[*:2])[*:1]; X54 = CN([C@@H](Cc1cc(F)ccc1-c1cnn(C2CCC2)c1)C(=O)[*:2])[*:1]; NMehhhLys(Me) = CN([C@@H](CCCCCCCN(C)[*:3])C(=O)[*:2])[*:1]; NMe3Pal(2-OiPr,5-Cl) = CN[C@@H](Cc1cc(Cl)cnc1OC(C)C)C(=O)O; NMe(hhhLys) = CN([C@@H](CCCCCCCN[*:3])C(=O)[*:2])[*:1]; X28 = CN([C@@H](Cc1cc(Cl)cnc1OC1CCC1)C(=O)[*:2])[*:1]; Cyclobutanecarbonyl(1-CF3) = O=C(C1(C(F)(F)F)CCC1)*; X88 = CC(C)c1ccc(Cl)cc1C[C@@H](C(=O)[*:2])N(C)[*:1]; cBuCO(3,3-F2-1-CF3) = O=C(C1(C(F)(F)F)CC(F)(F)C1)*; Pro(trans-4-F) = O=C(O)[C@@H]1C[C@@H](F)CN1; Gly(cPr) = N[C@H](C(=O)O)C1CC1
MEASURED PARAMETER: pIC50
Answer as the number alone; pIC50 is minus log10 of concentration in mol/L.

Task: May I ask what pIC50 has been recorded for CC(C)C[C@@H]1NC(=O)[C@@H](N(C)C(=O)[C@@H](NC(=O)[C@@H]2C[C@@H](F)CN2C(=O)C2(C(F)(F)F)CC(F)(F)C2)C2CC2)CCCCCCCNC(=O)[C@H](Cc2cc(Cl)cnc2OC(C)C)N(C)C1=O [Example 131] ({cBuCO(3,3-F2-1-CF3)}-[Pro(trans-4-F)][Gly(cPr)][NMe(hhhLys)]L[NMe3Pal(2-OiPr,5-Cl)]; lactam 3-C) ?
Result: 6.62

Task: Query CC(C)C[C@@H]1NC(=O)[C@@H](N(C)C(=O)[C@@H](NC(=O)[C@@H]2C[C@@H](F)CN2C(=O)C2(C(F)(F)F)CC(F)(F)C2)C2CC2)CCCCCCCN(C)C(=O)[C@H](Cc2cc(F)ccc2-c2cnn(C3CCOC3)c2)N(C)C1=O (stereo partly drawn) [Example 94] ({cBuCO(3,3-F2-1-CF3)}-[Pro(trans-4-F)][Gly(cPr)][NMehhhLys(Me)]L[X178]; lactam 3-C) next
Result: 6.74

Task: One more molecule: CC(=O)Nc1ccc(-c2ccc(Cl)cc2C[C@H]2C(=O)N(C)CCCCCCC[C@H](N(C)C(=O)[C@@H](NC(=O)[C@@H]3C[C@@H](F)CN3C(=O)C3(C(F)(F)F)CC(F)(F)C3)C3CC3)C(=O)N[C@@H](CC(C)C)C(=O)N2C)cn1 [Example 265] ({cBuCO(3,3-F2-1-CF3)}-[Pro(trans-4-F)][Gly(cPr)][NMehhhLys(Me)]L[X195]; lactam 3-C)
Result: 6.19

Task: Another molecule to check: CC(C)C[C@@H]1NC(=O)[C@@H](N(C)C(=O)[C@@H](NC(=O)[C@@H]2C[C@@H](F)CN2C(=O)C2(C(F)(F)F)CC(F)(F)C2)C2CC2)CCCCCCCN(C)C(=O)[C@H](Cc2cc(F)ccc2-c2cnn(C3CCC3)c2)N(C)C1=O [Example 96] ({cBuCO(3,3-F2-1-CF3)}-[Pro(trans-4-F)][Gly(cPr)][NMehhhLys(Me)]L[X54]; lactam 3-C)
Result: 6.92

Task: # repeat for CC(C)C[C@@H]1NC(=O)[C@@H](N(C)C(=O)[C@@H](NC(=O)[C@@H]2C[C@@H](F)CN2C(=O)C2(C(F)(F)F)CC(F)(F)C2)C2CC2)CCCCCCCNC(=O)[C@H](Cc2cc(Cl)ccc2C(C)C)N(C)C1=O [Example 63] ({cBuCO(3,3-F2-1-CF3)}-[Pro(trans-4-F)][Gly(cPr)][NMe(hhhLys)]L[X88]; lactam 3-C)
Result: 5.45

Task: Could you do the same for CC(C)C[C@@H]1NC(=O)[C@@H](N(C)C(=O)[C@@H](NC(=O)[C@@H]2C[C@@H](F)CN2C(=O)C2(C(F)(F)F)CCC2)C2CC2)CCCCCCCNC(=O)[C@H](Cc2cc(Cl)cnc2OC2CCC2)N(C)C1=O [Example 141] ({Cyclobutanecarbonyl(1-CF3)}-[Pro(trans-4-F)][Gly(cPr)][NMe(hhhLys)]L[X28]; lactam 3-C) , please?
Result: 7.00

---

Would you mind telling me the reported GI50 of each entry?
# System: OVCAR3 cells
# TEST NAME: MTT proliferation assay, OVCAR3;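 also: compound given as an 8- or 10-point series, one day after plating, with exposure covering roughly 3-4 cell doublings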
# Format: cell-based
# SETUP CONDITIONS: 5 days compound exposure, 1:3 serial dilution starting at 10 μM
*1 amine or outer side, *2 acyl side, *3 side chain or, on linkers, in order; H or OH if unused. Where a SMILES comes first, the peptide text is derived from it. Bridges are numbered along the chain shown (N, C = ends). [ ]: non-standard residue; d: D form. The star is where a group is joined. NMehhhLys(Me) = CN([C@@H](CCCCCCCN(C)[*:3])C(=O)[*:2])[*:1]; X156 = CN([C@@H](Cc1cc(Cl)cc2ccccc12)C(=O)[*:2])[*:1]; X213 = CN([C@@H](Cc1cc(Cl)cc2c1cnn2C)C(=O)[*:2])[*:1]; cBuCO(3,3-F2-1-CF3) = O=C(C1(C(F)(F)F)CC(F)(F)C1)*; Pro(trans-4-F) = O=C(O)[C@@H]1C[C@@H](F)CN1; Gly(cPr) = N[C@H](C(=O)O)C1CC1
Report the figure in nM without appending any unit label.

Task: Could you share which GI50 value was measured for CC(C)C[C@@H]1NC(=O)[C@@H](N(C)C(=O)[C@@H](NC(=O)[C@@H]2C[C@@H](F)CN2C(=O)C2(C(F)(F)F)CC(F)(F)C2)C2CC2)CCCCCCCN(C)C(=O)[C@H](Cc2cc(Cl)cc3ccccc23)N(C)C1=O [Example 425] ({cBuCO(3,3-F2-1-CF3)}-[Pro(trans-4-F)][Gly(cPr)][NMehhhLys(Me)]L[X156]; lactam 3-C) ?
Result: 240

Task: Same question for CC(C)C[C@@H]1NC(=O)[C@@H](N(C)C(=O)[C@H](CCC(=O)N2CCN(C)CC2)NC(=O)[C@@H]2C[C@@H](F)CN2C(=O)C2(C(F)(F)F)CC(F)(F)C2)CCCCCCCN(C)C(=O)[C@H](Cc2cc(Cl)ccc2-c2ccc(N3CCOCC3)cc2)N(C)C1=O [Example 420] please.
Result: 20

Task: Again, but for CC(C)C[C@@H]1NC(=O)[C@@H](N(C)C(=O)[C@@H](NC(=O)[C@@H]2C[C@@H](F)CN2C(=O)C2(C(F)(F)F)CC(F)(F)C2)C2CC2)CCCCCCCN(C)C(=O)[C@H](Cc2cc(Cl)cc3c2cnn3C)N(C)C1=O [Example 424] ({cBuCO(3,3-F2-1-CF3)}-[Pro(trans-4-F)][Gly(cPr)][NMehhhLys(Me)]L[X213]; lactam 3-C)
Result: 1780
